- STUDY TARGET: UniProtKB Q9UL62
- Sequence (Q9UL62 whole entry, species assumed): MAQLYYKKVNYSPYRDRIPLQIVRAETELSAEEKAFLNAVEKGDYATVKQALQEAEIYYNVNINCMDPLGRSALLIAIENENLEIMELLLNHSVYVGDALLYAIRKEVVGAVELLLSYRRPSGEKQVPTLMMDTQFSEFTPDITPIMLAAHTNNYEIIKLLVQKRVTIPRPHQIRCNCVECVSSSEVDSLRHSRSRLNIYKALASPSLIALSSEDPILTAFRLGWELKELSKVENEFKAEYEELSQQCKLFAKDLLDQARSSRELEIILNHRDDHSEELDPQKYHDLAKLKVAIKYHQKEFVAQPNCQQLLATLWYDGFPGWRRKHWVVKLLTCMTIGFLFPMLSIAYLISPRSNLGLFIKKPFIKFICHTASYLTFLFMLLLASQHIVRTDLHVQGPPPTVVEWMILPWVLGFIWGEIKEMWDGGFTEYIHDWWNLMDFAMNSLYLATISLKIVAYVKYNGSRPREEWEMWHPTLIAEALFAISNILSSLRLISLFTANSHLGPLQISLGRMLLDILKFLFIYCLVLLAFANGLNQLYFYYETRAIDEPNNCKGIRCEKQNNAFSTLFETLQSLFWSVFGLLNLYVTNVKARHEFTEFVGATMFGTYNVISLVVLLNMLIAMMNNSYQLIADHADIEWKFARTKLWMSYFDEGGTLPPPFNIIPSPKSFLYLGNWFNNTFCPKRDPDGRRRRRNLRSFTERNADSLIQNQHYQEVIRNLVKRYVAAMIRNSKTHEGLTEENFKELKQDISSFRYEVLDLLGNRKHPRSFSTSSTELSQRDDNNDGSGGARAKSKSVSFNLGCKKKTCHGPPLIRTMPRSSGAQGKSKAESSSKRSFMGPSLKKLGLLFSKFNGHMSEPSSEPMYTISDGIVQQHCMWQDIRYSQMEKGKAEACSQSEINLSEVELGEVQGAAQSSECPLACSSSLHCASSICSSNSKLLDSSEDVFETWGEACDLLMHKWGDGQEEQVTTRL
- EXPERIMENT SUMMARY: cell-based
- ASSAY CONDITIONS: calcium flux, relative to compound 6

| MOLECULE | STUDY TARGET | TRPC5 inhibitory activity in words (SAR) |
| --- | --- | --- |
| CC(O)CCn1c(=O)c2c3nc(n2Cc2ccc(Cl)cc2)Oc2cccc(c2)OCCCCCCn3c1=O (stereo not shown) | UniProtKB Q9UL62 | tolerated |
| O=c1c2c3nc(n2Cc2cccc(Cl)c2)Oc2cccc(c2)OCCCCCCn3c(=O)n1CCCO | UniProtKB Q9UL62 | tolerated |
